# reported fluorescence intensity in solution (S) before antigen binding; entries follow
TESTED ON: T1, Anti-HRP antibody(r)
T1 construct: Rabbit IgG, immobilised on a microplate; also called rabbit anti-HRP antibodies; anti-HRP antibody from a rabbit
PROTOCOL DETAILS: labelled peptide on antibody immobilised on microplate; antigen HRP
Ends that are not written are not given here. FAM = carboxyfluorescein (FAM) fluorescent label
API note: the answer field is a bare number with no unit suffix.

For orientation, consider the following solved cases.
BINDER: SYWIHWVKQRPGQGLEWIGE (not fully specified (N-terminus), Synthetic 20-mer homologous to the FR2 region of the heavy chain; The fluorescent label differs between experiments; also called H1 switching peptide; third peptide compound H1) [H1 peptide]
MEASURED VALUE: 2600
//
BINDER: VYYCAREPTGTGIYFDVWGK (not fully specified (N-terminus), Synthetic 20-mer homologous to the FR3 or FR4 region of the heavy chain; The label differs between experiments; also called H2 switching peptide; fourth peptide compound H2) [H2 peptide]
MEASURED VALUE: 2270

*Q* Complete the entry with fluorescence intensity in solution (S) before antigen binding for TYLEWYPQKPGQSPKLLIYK (not fully specified (N-terminus), Synthetic 20-mer homologous to the FR2 region of the light chain; The label differs between experiments; also called L1 switching peptide; first peptide compound L1) [L1 peptide]
*A* 2690

*Q* Supply fluorescence intensity in solution (S) before antigen binding value. Item: {FAM}-VYYCFQGSHVPFTK (Synthetic 14-mer homologous to the FR3 or FR4 region of the light chain; also called L2 switching peptide; second peptide compound L2) [L2 peptide]
*A* 2320

Origin of measurements: patent US20250341517A1
